Tested on: Septoria tritici
assay remarks: Test A: wheat leaf blotch, preventive spray on wheat seedlings
Type: in vivo
experimental setup: 50 ppm, 100 = 100% disease control, 0 = no control
Description: General protocol for preparing test suspensions for Tests A-F: the test compounds were first dissolved in acetone in an amount equal to 3% of the final volume and then suspended at the desired concentration (in ppm) in acetone and purified water (50/50 mix by volume) containing 250 ppm of the surfactant PEG400 (polyhydric alcohol esters). The resulting test suspensions were then used in Tests A-F. The test solution was sprayed to the point of run-off on wheat seedlings. […]
property label: Test A disease control rating (%)
The figure you give is taken to be in %; do not add the unit.

Exercise: I would be grateful if you could share the reported Test A disease control rating for Cc1nn(C)c(Nc2ccccc2[N+](=O)[O-])c1-c1ccc(F)cc1F [compound 190] .
Solution: 100

More entries:
Exercise: Recorded Test A disease control rating of Cc1nn(C)c(Nc2c(F)cc(Cl)cc2[N+](=O)[O-])c1-c1ccc(Cl)cc1Cl [compound 11] , please.
Solution: 100

Exercise: Another: CCc1nn(C)c(Nc2c(Cl)cc(Br)cc2[N+](=O)[O-])c1-c1ccc(F)cc1Cl [compound 128]
Solution: 100

Exercise: Here is the next compound: Cc1nn(C)c(Nc2c(F)cc(F)cc2[N+](=O)[O-])c1-c1ccc(F)cc1Cl [compound 109]
Solution: 100

###

Tested on: Phakopsora pachyrhizi
assay remarks: Test D: Asian soybean rust, preventive spray on soybean seedlings
Assay type: in vivo
experimental setup: 216 h, 10 ppm, 100 = 100% disease control, 0 = no control, read-out: Test D disease control rating
# pest or weed control at 10 ppm annotations
Give the quantity in %, number only.

Exercise: Quick check: pest or weed control at 10 ppm of CCc1nn(C)c(Nc2c(F)cccc2[N+](=O)[O-])c1-c1ccc(F)cc1Cl ?
Solution: 12

Exercise: Quick one: Cc1cc(F)c(Nc2c(-c3ccc(F)cc3Cl)c(C)nn2C)c([N+](=O)[O-])c1
Solution: 87

Exercise: Here is the next compound: Cc1nn(C)c(Nc2c(F)cccc2[N+](=O)[O-])c1-c1ccc(F)cc1F
Solution: 0

Exercise: Also need Cc1nn(C)c(Nc2c(F)cccc2[N+](=O)[O-])c1-c1ccc(F)cc1Br , thanks.
Solution: 0

Exercise: Repeat for the following compound: Cc1nn(C)c(Nc2c(F)cccc2[N+](=O)[O-])c1-c1ccc(F)cc1Cl
Solution: 52

***
Exercise: Quick one: pest or weed control at 10 ppm of Cc1nn(C)c(Nc2c(F)cccc2[N+](=O)[O-])c1-c1c(F)cc(F)cc1Cl ?
Solution: 32

###

System: Septoria tritici
assay remarks: Test A: wheat leaf blotch, preventive spray on wheat seedlings
Assay type: in vivo
experimental setup: 50 ppm, 100 = 100% disease control, 0 = no control
property label: Test A disease control rating
Your reply should be a number followed by the unit it is expressed in.

Exercise: Dear colleague, I am looking for the recorded Test A disease control rating of the following compound: Cc1nn(C)c(Nc2c(F)cc(I)cc2[N+](=O)[O-])c1-c1ccc(F)cc1Cl
Solution: 100%

Exercise: And the next one, Cc1nn(C)c(Nc2ccc(F)cc2[N+](=O)[O-])c1-c1c(F)cccc1Cl ?
Solution: 100%

Exercise: Now consider Cc1nn(C)c(Nc2c(Cl)cccc2[N+](=O)[O-])c1-c1ccc(Cl)cc1Cl .
Solution: 100%

***
Exercise: Value lookup for Test A disease control rating; key = Cc1nn(C)c(Nc2c(Cl)cc(Cl)cc2[N+](=O)[O-])c1-c1ccc(Cl)cc1Cl
Solution: 97%

Exercise: Same read-out for Cc1cccc([N+](=O)[O-])c1Nc1c(-c2ccc(Cl)cc2Cl)c(C)nn1C ?
Solution: 100%

Exercise: Same read-out for COc1ccc(-c2c(C)nn(C)c2Nc2c(Cl)cccc2[N+](=O)[O-])c(Cl)c1 ?
Solution: 100%

Exercise: And then Cc1nn(C)c(Nc2ccccc2[N+](=O)[O-])c1-c1c(F)cc(F)cc1F , what is it?
Solution: 100%

Exercise: Continue with Cc1nn(C)c(Nc2ccc(OC(F)(F)F)cc2[N+](=O)[O-])c1-c1ccc(F)cc1Cl
Solution: 73%
